Kindly supply the reported TGI values for the records listed here.
# Tested on: UO-31 renal
# test: NCI tumour cell line growth inhibition, 48 h

Problem: Note down TGI recorded for COC(=O)c1c(-c2cccs2)oc(-c2cccs2)c1C(=O)OC
Result: 60.1 µM

Problem: In one line, give reported TGI of the entry COc1ccc2nc(C(=O)c3ccccc3)c(C)cc2c1 .
Result: > 57.7 µM

Problem: Quick one: give measured TGI for O=C(Nc1nn[nH]n1)c1nc(-c2ccccc2)cc(=O)[nH]1
Result: > 100 µM

Problem: Please list TGI recorded for the compound COc1ccccc1S(=O)(=O)Nc1ccc2c3c(cc(CCC(=O)NCCCCNc4cccc5c4C(=O)N(C4CCC(=O)NC4=O)C5=O)cc13)C(=O)N2C (configuration not stated)
Result: > 100 µM

Problem: Retrieve TGI measured for O=C1/C(=C/c2ccc(F)cc2)CN(C(=O)CCN2CCC(=NO)CC2)C/C1=C\c1ccc(F)cc1 and print it.
Result: 2.84 µM

Problem: Specify reported TGI for the compound shown: NC(=O)CN1C=CCC(C(N)=O)=C1
Result: > 100 µM

Problem: Annotate the compound O=C1/C(=C/c2cccc3ccccc23)CCc2ccc([N+](=O)[O-])cc21 with its measured TGI.
Result: > 100 µM

Problem: Tell me TGI reported for N#CC(C(=O)CCCC(=O)Nc1ccc(Cl)cc1Cl)c1ccccc1 (configuration not stated)
Result: > 100 µM

Problem: // fetch TGI given entry Cc1ccccc1NC(=O)CC(=O)NNC(Sc1ccccc1)c1cc(N=Nc2ccc(Br)cc2)ccc1O (configuration not stated)
Result: > 10 µM

Problem: In one line, give reported TGI of the entry Cc1nc(Nc2ccccc2Cl)sc1C(=O)CC(=O)C(N)=O .
Result: > 100 µM

Problem: Return the recorded TGI value; entry: Cc1ccc(S(=O)(=O)NC(=O)C2=C3SCCN3C(=O)N(S(=O)(=O)c3ccc(C)cc3)C2c2ccccc2)cc1 (configuration not stated)
Result: > 100 µM

Problem: Give the measured TGI for NC(=S)NC/C=C/Cl
Result: > 100 µM

Problem: Write down TGI measured for item CCOC(=O)C1=C(O)c2ccc(C)cc2C(=O)C1=O
Result: > 100 µM

Problem: # return recorded TGI for input CCCCCC(=O)Nc1nc2nc[nH]c2c(=O)[nH]1
Result: > 100 µM

Problem: Provide one value: measured TGI of Cc1cc(S(=O)(=O)/N=C(/NN)Nc2ccc(Cl)cc2)c(S)cc1Cl
Result: 18 µM

Problem: Could you please provide reported TGI for O=C1NC(Cc2ccc(O)cc2)C(=O)NC1Cc1ccc(O)cc1 (configuration not stated) ? Thanks!
Result: > 100 µM

Problem: Tell me TGI reported for COCCOc1cc(C)cc(/C=C(C)/C=C/C2=C(C)CCCC2(C)C)n1
Result: > 100 µM

Problem: Tell me TGI reported for Clc1ccc(C2=CCN3CC=C(c4ccc(Cl)cc4)C23)cc1
Result: 20 µM

Problem: Write down TGI measured for item Cc1ccc([N+](=O)[O-])c2c(NCCNC(=O)c3cc(C(=O)NCCNc4ccnc5c(C)ccc([N+](=O)[O-])c45)n(C)n3)ccnc12
Result: > 100 µM

Problem: Tell me its TGI given CCSC1=CC2(O)N(CCc3ccc(OC)c(OC)c3)C(=O)CC2(C(=O)OC)CC1=O (configuration not stated) as the entry.
Result: 33.1 µM

Problem: Report TGI for O=C(O)CCNS(=O)(=O)c1ccc2ccccc2c1
Result: > 100 µM

Problem: Supply measured TGI of Clc1cc(Cl)ncn1 in your reply.
Result: > 100 µM

###

# Test system: K-562 leukemia
# test: NCI tumour cell line growth inhibition, 48 h; in the data active = GI50 below about 0.43 µM; inactive = the rest
Select the matching outcome among active, inactive

Problem: Short answer needed: outcome of this test for ClCc1ccccc1Cn1cnc2ncnc(Cl)c21 ?
Result: inactive

Problem: Assay outcome for CCCCCCSSC(=S)N(CC)CC : what was it?
Result: inactive

Problem: Could you kindly confirm the outcome this assay logged for O=C1/C(=C/c2ccc(F)cc2)CN(C(=O)CCN2CCC(=NO)CC2)C/C1=C\c1ccc(F)cc1 ?
Result: active

Problem: // outcome(item) with item = CC/C(Cc1ccccc1)=C(\c1ccc(OCCN2CCCC2)cc1)c1ccc(OC(=O)NCc2ccccc2)cc1
Result: inactive

Problem: Dear all, I need the recorded test outcome for C#Cc1cccc(Nc2nc(Cl)nc3cc(NC(=O)CCl)ccc23)c1 , thank you.
Result: inactive

Problem: Name the outcome recorded for O=C(Nc1ccccc1I(=O)=O)C1CCCCC1 in the assay.
Result: inactive

Problem: Assay outcome for CC(=O)N1CCN(CCNC(=O)n2cc(-c3ccncc3)c(-c3cc(O)cc(Cl)c3)n2)CC1 : what was it?
Result: inactive

###

# Tested on: IGROV1 ovarian
# test: NCI tumour cell line growth inhibition, 48 h
quantityMeasured: TGI (µM)
Dear colleague, please return just the value in µM, with no unit written.

Problem: Find TGI for Cc1c2ccncc2c(C)c2c1[nH]c1ccc(OCCN(C)C)cc12 on IGROV1 ovarian and write it down.
Result: 1.42

Problem: Enter TGI (test system IGROV1 ovarian) for O=c1[nH]nc(Cc2ccc(Cl)cc2)n1/N=C/c1ccc([N+](=O)[O-])o1
Result: 11.2

Problem: Return reported TGI for target or system IGROV1 ovarian, item CCCCCC(O)C(O)CCC[C@H](O)[C@H]1CC[C@H]([C@H]2CC[C@H]([C@H](O)CCCCCCCCCCCCC3=C[C@H](C)OC3=O)O2)O1 (stereo not given in full) .
Result: 29.4

Problem: Give TGI for CCCCCCSSC(=S)N(CC)CC tested on IGROV1 ovarian.
Result: 86.7

Problem: Recall the reported TGI of CS(=O)(=O)OCCCNCCCOS(C)(=O)=O when tested on IGROV1 ovarian.
Result: 7300

Problem: Find the measured TGI of C=C1C(C)C2C(Cc3ccccc3)NC(=O)C23OC(=O)/C=C\CC(=O)CCC(C)C/C=C/C3C1O (stereo not given) with IGROV1 ovarian as test system.
Result: 10.6

Problem: Name the value of TGI reported for O=C(OCc1ccccc1)N1CCNCCNCCN(C(=O)OCc2ccccc2)CCNCC1 when tested on IGROV1 ovarian.
Result: 91.3

###

# Tested on: COLO 205 colon
# test: NCI tumour cell line growth inhibition, 48 h
quantityMeasured: TGI

Problem: Please report the measured TGI for ClCc1ccccc1Cn1cnc2ncnc(Cl)c21
Result: > 100 µM

Problem: Let me know recorded TGI for CCCOC(=O)c1c(C)n(C)c2scc[n+]12 , thanks.
Result: 46.8 µM

Problem: Report measured TGI; entry is COc1ccccc1C1C(C#N)=C(N)Oc2n[nH]c(C)c21 (stereo unspecified)
Result: > 100 µM

Problem: Tell me measured TGI for O=[N+]([O-])c1ccc(Cl)c(CNc2ncnc3c2ncn3C2CCCCO2)c1 (stereo unspecified) please.
Result: > 100 µM

Problem: Report TGI, nothing else, for this molecule: CCOC(=O)Nc1ccc(S(=O)(=O)Nn2cnnc2)cc1
Result: > 100 µM

Problem: Fill in TGI for record COc1ccc(-c2ccc(/C=N/n3c(COc4ccccc4Cl)nn(CN4CCOCC4)c3=S)o2)c([N+](=O)[O-])c1
Result: > 100 µM

###

# System: PC-3 prostate
# test: NCI tumour cell line growth inhibition, 48 h; in the data active means GI50 below about 0.43 µM; inactive means the rest
Can you answer with just one of these options? class 1 for active, class 0 for inactive

Problem: # lookup: test call for O=C1/C(=C/c2ccc(F)cc2)CN(C(=O)CCN2CCC(=NO)CC2)C/C1=C\c1ccc(F)cc1
Result: class 0

Problem: What is the recorded call for this compound in the test? C=C1C(O)C2CC(C)(CO)C(=O)C2=C(CC(C)C)C12CC2 (stereo not given)
Result: class 0

Problem: Could you please tell me the result logged for CN(C)CCCn1c(=O)c2ccccc2c2cnc3[nH]ccc3c21 in this assay?
Result: class 0

Problem: Returns: the outcome recorded for Cn1cc(C2=C(c3c[nH]c4ccccc34)C(=O)NC2=O)c2ccccc21 in this assay.
Result: class 0

Problem: Identify the outcome logged in this assay for the compound shown: CC(=O)OC12C=C(C)C(C(C)C1)C1C(=O)N(CCN3CCCCC3)C(=O)C12 (stereo not given)
Result: class 0

Problem: For this compound, state the assay outcome: COc1ccc(C(=O)c2cc(C)c(OC)c(C)c2)c(OC)c1NC(C)=O
Result: class 1

Problem: Hi, sorry to bother you, what did the test record for COc1ccc(-c2cncn2-c2cc(OC)c(OC)c(OC)c2)cc1 ?
Result: class 0

Problem: Which outcome was assigned to CNCCCNc1nc2ccccc2c2c(=O)c3cc(OC)ccc3sc12 in this test?
Result: class 0

Problem: Please indicate how the test categorized CN=C1C=CC(=C(c2ccc(N(C)C)cc2)c2ccc(N(C)C)cc2)C=C1 .
Result: class 1

Problem: Please let me know the test result on file for c1ccc(OCCC[P+](c2ccccc2)(c2ccccc2)c2ccccc2)cc1 .
Result: class 0
